# System: MDA-MB-231 breast
# assay-method-text: NCI tumour cell line growth inhibition, 48 h
Parameter TGI: see the listing below.

Worked examples, 10 molecules total:
[ask] Would you kindly share the measured TGI for COC(=O)c1c(O)ccc2c1C1(Cc3ccccc3C1=O)C(O)O2 (centres undefined) ?
[reply] 52.1 µM

[ask] Another molecule to check: CCOP(=O)(OCC)C(C)(CC)NC (centres undefined)
[reply] > 100 µM

[ask] Another molecule to check: COC(=O)c1nc(-c2ccccc2)oc1S(=O)(=O)n1nc(C)cc1N
[reply] 21.8 µM

[ask] Another molecule to check: FC(F)(F)c1ccc2nc(Sc3ccccn3)cnc2c1
[reply] > 100 µM

[ask] Another molecule to check: CCC[C@H](C)C[C@H](C)C[C@H](C)/C=C(\C)[C@@H](O)[C@@H](C)C(=O)CC
[reply] 44.6 µM

[ask] Another molecule to check: COc1ccc(C2[C@@H](Cl)C(=O)N2c2cc(OC)c(OC)c(OC)c2)cc1Cl (some centres undefined)
[reply] 26.1 µM

[ask] Another molecule to check: Cc1c(C2=C(c3cn(C)c4ccccc34)C(=O)NC2=O)c2ccccc2n1C
[reply] > 25 µM

[ask] Another molecule to check: CCNC1=C(NC(=O)CC)C(=O)c2ccccc2C1=O
[reply] > 100 µM

[ask] Another molecule to check: CC1OC(O[C@H]2/C=C/C=C/C=C/C=C/C=C/C=C/C=C/[C@H](C)[C@@H](O)[C@@H](C)[C@H](C)OC(=O)CC(O)CC(O)CCC(O)C(O)CC(O)C[C@]3(O)C[C@H](O)C(C(=O)O)C(C2)O3)C(O)[C@H](N)C1O (some centres undefined)
[reply] 15.7 µM

[ask] Another molecule to check: COc1ccc(C(=O)c2[nH]c(Nc3ccc(Cl)cc3)c(C(=S)Nc3ccccc3)c2N)cc1
[reply] > 100 µM

Others:
[ask] Would you kindly share the measured TGI for CC1=CC(=O)C(O)C2(C)C1CC(O)C13COC4(C)C(OC(=O)C41)C(O)C23 (centres undefined) ?
[reply] 43.9 µM

[ask] Another molecule to check: COc1ccc2cc(-c3c(-c4ccncc4)nc(-c4ccc(S(C)=O)cc4)n3C)ccc2c1 (centres undefined)
[reply] > 25 µM
